Listed here: items and their measured IC50.
Biological target: PD-1/PD-L1 (Homo sapiens, UniProt Q9NZQ7)
Sequence (Q9NZQ7 19-238 limits assumed): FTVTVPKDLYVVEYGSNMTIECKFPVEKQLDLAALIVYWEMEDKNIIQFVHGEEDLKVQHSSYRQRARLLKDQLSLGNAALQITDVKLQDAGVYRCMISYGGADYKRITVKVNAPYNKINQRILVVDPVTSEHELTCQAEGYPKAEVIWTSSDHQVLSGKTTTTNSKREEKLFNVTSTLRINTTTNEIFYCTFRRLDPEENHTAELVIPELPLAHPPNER
Assay: Homogeneous time-resolved fluorescence (HTRF) PD-1/PD-L1 assay (CisBio kit)
ENDPOINT_LABEL: IC50 (nM)

# COMPOUND, UNIT, RESULT
measured = [
    ("Cc1c(NC(=O)c2ccc(CNCCO)cn2)cccc1-c1cccc(NC(=O)c2ccc(CNCCCNS(C)(=O)=O)cn2)c1C.Cl.Cl.Cl.Cl [Compound 17a]", "nM", 3.06),
    ("Cc1c(NC(=O)c2ccc(CN[C@@H](C)CO)cn2)cccc1-c1cccc(NC(=O)c2ccc(CN(C)CCO)cn2)c1C", "nM", 1.46),
]

###

Assay: Solubility of the compounds (visual evaluation and A600 of dilutions)
Format: physicochemical
Settings: absorbance at 600 nm, 96-well plate; blank 0.0472; values in parentheses unreliable (precipitate)
Below is a list of entries, each paired with its recorded A600 measurement (averaged from 2 reps) value.

# STRUCTURE_STRING, A600 measurement (averaged from 2 reps)
data = [
    ("Cc1c(NC(=O)c2ccc(CNCCCO)cn2)cccc1-c1cccc(NC(=O)c2ccc(CN(C)CCO)cn2)c1C", 0.3466),
    ("Cc1c(NC(=O)c2ccc(CN[C@@H](C)CO)cn2)cccc1-c1cccc(NC(=O)c2ccc(CN[C@@H]3CCC[C@H]3O)cn2)c1C", 0.1827),
    ("Cc1c(NC(=O)c2ccc(CNCCCO)cn2)cccc1-c1cccc(NC(=O)c2ccc(CN3CCC(O)CC3)cn2)c1C", 0.09395),
    ("Cc1c(NC(=O)c2ccc(CN[C@@H]3CCC[C@H]3O)cn2)cccc1-c1cccc(NC(=O)c2ccc(CN(CCO)CCO)cn2)c1C", 0.2271),
    ("Cc1c(NC(=O)c2ccc(CN(C)CCO)cn2)cccc1-c1cccc(NC(=O)c2ccc(CN(CCO)CCO)cn2)c1C", 0.459),
    ("Cc1c(NC(=O)c2ccc(CNCCCO)cn2)cccc1-c1cccc(NC(=O)c2ccc(CN(CCO)CCO)cn2)c1C", 0.2786),
    ("Cc1c(NC(=O)c2ccc(CNCCO)cn2)cccc1-c1cccc(NC(=O)c2ccc(CNCCCNS(C)(=O)=O)cn2)c1C", 0.2217),
    ("Cc1c(NC(=O)c2ccc(CN[C@@H](C)CO)cn2)cccc1-c1cccc(NC(=O)c2ccc(CN3CCC(O)CC3)cn2)c1C", 0.1308),
]

Sourced from paper PMC11181486
